- targetSystem: UniProt P29477
- measurementNotes: iNOS SPA enzyme assay, effect of solvents
- Type: biochemical, murine
- Set-up: purchased Cayman Chemical Company 60864
- condition: 10% solvent; 10 min
- Method: The effect of using different solvents to dissolve test inhibitor compounds was tested, using the assay conditions as described in Example 4 above. […] Appropriate ‘experimental controls’ should therefore be used in all experiments.
# Time (mins) cpm, 10 annotations
Note: unit cpm is implicit; provide only the numeric part.

Solved cases below.
Using the record for "CCO" , state its measured Time (mins) cpm, 10. 5987

Using the record for "CC(C)=O" , state its measured Time (mins) cpm, 10. 6464

Using the record for "CO" , state its measured Time (mins) cpm, 10. 4698

Consider now this further molecule.
Using the record for "C[S+](C)[O-]" , state its measured Time (mins) cpm, 10. 3666

----------
- targetSystem: iNOS (Mus musculus, UniProt P29477)
- measurementNotes: iNOS SPA enzyme assay, effect of solvents
- Type: biochemical, murine
- Set-up: purchased Cayman Chemical Company 60864
- condition: 1% solvent; 5 min
quantityMeasured: Time (mins) cpm, 5 (cpm)
Note: unit cpm is implicit; provide only the numeric part.

Using the record for C[S+](C)[O-] [DMSO] , state its measured Time (mins) cpm, 5. 7128

Next:
Using the record for CO [methanol] , state its measured Time (mins) cpm, 5. 8639

Using the record for CC(C)=O [acetone] , state its measured Time (mins) cpm, 5. 8509

Using the record for CCO [ethanol] , state its measured Time (mins) cpm, 5. 9004

----------
- targetSystem: iNOS (Mus musculus)
- measurementNotes: iNOS SPA enzyme assay, effect of solvents
- Assay type: biochemical, murine
- Design: purchased Cayman Chemical Company 60864
- condition: 5% solvent
quantityMeasured: Ratio Time 0/20 mins
Note: the reply should be a number with no unit written.

Solved cases below.
Using the record for "C[S+](C)[O-]" , state its measured Ratio Time 0/20 mins. 5.12

Using the record for "CO" , state its measured Ratio Time 0/20 mins. 7.13

Using the record for "CCO" , state its measured Ratio Time 0/20 mins. 4.19

Consider now this further molecule.
Using the record for "CC(C)=O" , state its measured Ratio Time 0/20 mins. 4.78

----------
- targetSystem: UniProt:P29477
- measurementNotes: iNOS SPA enzyme assay, effect of solvents
- Format: biochemical, murine
- Design: purchased Cayman Chemical Company 60864
- condition: 10% solvent; 5 min
# Time (mins) cpm, 5 annotations
Note: unit cpm is implicit; provide only the numeric part.

Solved cases below.
Give UniProt:P29477 Time (mins) cpm, 5 for the following compound: "CCO" 6316

Give UniProt:P29477 Time (mins) cpm, 5 for the following compound: "C[S+](C)[O-]" 3884

Give UniProt:P29477 Time (mins) cpm, 5 for the following compound: "CO" 6631

Consider now this further compound.
Give UniProt:P29477 Time (mins) cpm, 5 for the following compound: "CC(C)=O" 6255

----------
- targetSystem: iNOS (Mus musculus)
- measurementNotes: iNOS SPA enzyme assay, effect of solvents
- Assay type: biochemical, murine
- Design: purchased Cayman Chemical Company 60864
- condition: 1% solvent; 10 min
quantityMeasured: Time (mins) cpm, 10 (cpm)
Note: unit cpm is implicit; provide only the numeric part.

Solved cases below.
Using the record for "C[S+](C)[O-]" , state its measured Time (mins) cpm, 10. 4330

Using the record for "CO" , state its measured Time (mins) cpm, 10. 4989

Using the record for "CC(C)=O" , state its measured Time (mins) cpm, 10. 5169

Consider now this further compound.
Using the record for "CCO" , state its measured Time (mins) cpm, 10. 5580

----------
- targetSystem: iNOS (Mus musculus, UniProt P29477)
- measurementNotes: iNOS SPA enzyme assay, effect of solvents
- Type: biochemical, murine
- Parameters: purchased Cayman Chemical Company 60864
- condition: 10% solvent; versus water
quantityMeasured: % change in ratio
Please report the result as a number followed by the unit.

Solved cases below.
Using the record for CC(C)=O [acetone] , state its measured % change in ratio. 55%

Using the record for CO [methanol] , state its measured % change in ratio. 10%

Using the record for CCO [ethanol] , state its measured % change in ratio. 54%

Consider now this further compound.
Using the record for C[S+](C)[O-] [DMSO] , state its measured % change in ratio. 56%

----------
- targetSystem: iNOS (Mus musculus)
- measurementNotes: iNOS SPA enzyme assay, effect of solvents
- Format: biochemical, murine
- Design: purchased Cayman Chemical Company 60864
- condition: 5% solvent; 5 min
# Time (mins) cpm, 5 annotations
Note: unit cpm is implicit; provide only the numeric part.

Solved cases below.
Using the record for "CC(C)=O" , state its measured Time (mins) cpm, 5. 8409

Using the record for "C[S+](C)[O-]" , state its measured Time (mins) cpm, 5. 4166

Using the record for "CO" , state its measured Time (mins) cpm, 5. 7939

Consider now this further molecule.
Using the record for "CCO" , state its measured Time (mins) cpm, 5. 7465

----------
- targetSystem: iNOS (Mus musculus, UniProt P29477)
- measurementNotes: iNOS SPA enzyme assay, effect of solvents
- Type: biochemical, murine
- Design: purchased Cayman Chemical Company 60864
- condition: 1% solvent; 20 min
quantityMeasured: Time (mins) cpm, 20 (cpm)
Note: unit cpm is implicit; provide only the numeric part.

Solved cases below.
Using the record for "CCO" , state its measured Time (mins) cpm, 20. 2040

Using the record for "C[S+](C)[O-]" , state its measured Time (mins) cpm, 20. 1615

Using the record for "CC(C)=O" , state its measured Time (mins) cpm, 20. 1971

Consider now this further compound.
Using the record for "CO" , state its measured Time (mins) cpm, 20. 1973

----------
- targetSystem: UniProt:P29477
- measurementNotes: iNOS SPA enzyme assay, effect of solvents
- Type: biochemical, murine
- Design: purchased Cayman Chemical Company 60864
- condition: 5% solvent; 20 min
quantityMeasured: Time (mins) cpm, 20 (cpm)
Note: unit cpm is implicit; provide only the numeric part.

Solved cases below.
Using the record for "C[S+](C)[O-]" , state its measured Time (mins) cpm, 20. 1665

Using the record for "CCO" , state its measured Time (mins) cpm, 20. 3161

Using the record for "CC(C)=O" , state its measured Time (mins) cpm, 20. 2601

Consider now this further compound.
Using the record for "CO" , state its measured Time (mins) cpm, 20. 2147

----------
# Time (mins) cpm, 10 annotations
- targetSystem: iNOS (Mus musculus)
- measurementNotes: iNOS SPA enzyme assay, effect of solvents
- Type: biochemical, murine
- Parameters: purchased Cayman Chemical Company 60864
- condition: 5% solvent; 10 min
Note: unit cpm is implicit; provide only the numeric part.

Using the record for CCO [ethanol] , state its measured Time (mins) cpm, 10. 6596

Next:
Using the record for CC(C)=O [acetone] , state its measured Time (mins) cpm, 10. 6708

Using the record for CO [methanol] , state its measured Time (mins) cpm, 10. 5466

Using the record for C[S+](C)[O-] [DMSO] , state its measured Time (mins) cpm, 10. 4453

----------
- targetSystem: iNOS (Mus musculus, UniProt P29477)
- measurementNotes: iNOS SPA enzyme assay, effect of solvents
- Assay type: biochemical, murine
- Parameters: purchased Cayman Chemical Company 60864
- condition: 10% solvent
quantityMeasured: Ratio Time 0/20 mins
Note: the reply should be a number with no unit written.

Using the record for "CO" , state its measured Ratio Time 0/20 mins. 6.32

Using the record for "CCO" , state its measured Ratio Time 0/20 mins. 3.23

Using the record for "CC(C)=O" , state its measured Ratio Time 0/20 mins. 3.19

Consider now this further molecule.
Using the record for "C[S+](C)[O-]" , state its measured Ratio Time 0/20 mins. 3.10

----------
- targetSystem: iNOS (Mus musculus, UniProt P29477)
- measurementNotes: iNOS SPA enzyme assay, effect of solvents
- Type: biochemical, murine
- Design: purchased Cayman Chemical Company 60864
- condition: 1% solvent; 0 min
quantityMeasured: Time (mins) cpm, 0 (cpm)
Note: unit cpm is implicit; provide only the numeric part.

Solved cases below.
Using the record for "CCO" , state its measured Time (mins) cpm, 0. 13409

Using the record for "CO" , state its measured Time (mins) cpm, 0. 14914

Using the record for "CC(C)=O" , state its measured Time (mins) cpm, 0. 12884

Consider now this further molecule.
Using the record for "C[S+](C)[O-]" , state its measured Time (mins) cpm, 0. 10324

----------
- targetSystem: iNOS (Mus musculus)
- measurementNotes: iNOS SPA enzyme assay, effect of solvents
- Assay type: biochemical, murine
- Parameters: purchased Cayman Chemical Company 60864
- condition: 10% solvent; 20 min
- Description: The effect of using different solvents to dissolve test inhibitor compounds was tested, using the assay conditions as described in Example 4 above. […] Appropriate ‘experimental controls’ should therefore be used in all experiments.
# Time (mins) cpm, 20 annotations
Note: unit cpm is implicit; provide only the numeric part.

Solved cases below.
Using the record for "CO" , state its measured Time (mins) cpm, 20. 1975

Using the record for "C[S+](C)[O-]" , state its measured Time (mins) cpm, 20. 2138

Using the record for "CCO" , state its measured Time (mins) cpm, 20. 3715

Next:
Using the record for "CC(C)=O" , state its measured Time (mins) cpm, 20. 3193
